target or system: PRMT5 (Homo sapiens, UniProt O14744)
Construct: purchased Viva (custom protein)
Sequence (O14744 whole entry): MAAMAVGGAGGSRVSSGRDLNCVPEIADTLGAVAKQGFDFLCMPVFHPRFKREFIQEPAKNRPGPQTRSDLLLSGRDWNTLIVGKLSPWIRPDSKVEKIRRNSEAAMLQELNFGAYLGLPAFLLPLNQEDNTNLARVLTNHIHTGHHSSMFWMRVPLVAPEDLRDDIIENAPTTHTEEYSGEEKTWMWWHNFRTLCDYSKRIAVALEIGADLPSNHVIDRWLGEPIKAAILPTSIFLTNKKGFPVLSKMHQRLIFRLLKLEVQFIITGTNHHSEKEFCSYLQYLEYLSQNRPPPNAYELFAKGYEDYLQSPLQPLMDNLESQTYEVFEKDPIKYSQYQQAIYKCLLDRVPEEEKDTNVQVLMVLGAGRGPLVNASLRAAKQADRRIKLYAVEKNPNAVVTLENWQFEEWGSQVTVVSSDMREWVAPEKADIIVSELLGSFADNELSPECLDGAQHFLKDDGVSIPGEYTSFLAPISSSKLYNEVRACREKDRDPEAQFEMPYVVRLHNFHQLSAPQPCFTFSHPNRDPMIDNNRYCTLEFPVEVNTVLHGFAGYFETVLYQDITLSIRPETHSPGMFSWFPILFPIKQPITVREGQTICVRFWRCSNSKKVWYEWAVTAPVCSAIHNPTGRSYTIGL
Sequence (Q9BQA1 whole entry partner): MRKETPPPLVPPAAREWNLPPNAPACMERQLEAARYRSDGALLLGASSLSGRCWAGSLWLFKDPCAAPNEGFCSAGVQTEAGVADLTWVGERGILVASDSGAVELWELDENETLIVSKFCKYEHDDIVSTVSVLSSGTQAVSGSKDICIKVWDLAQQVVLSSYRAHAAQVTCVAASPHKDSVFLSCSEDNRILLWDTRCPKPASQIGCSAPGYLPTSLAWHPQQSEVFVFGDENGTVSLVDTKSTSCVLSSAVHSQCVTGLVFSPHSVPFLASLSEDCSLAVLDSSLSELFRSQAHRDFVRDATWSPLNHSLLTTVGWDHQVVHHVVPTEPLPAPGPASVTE
measurement notes: PRMT5 IC50 assay with no cofactor
Type: biochemical
assay setup: read-out: No Co-factor IC50
Please provide measured IC50 for the entries that follow.

*Q* For the compound shown here, O=C(NC[C@H](O)CN1CCc2cc(OCc3cnco3)ccc2C1)c1cncc(NC2CCOCC2)c1 [Compound 383] , give the reported IC50.
*A* ≥ 5 µM

*Q* // returns reported IC50 for input Cc1c(OCc2cnco2)cc(F)c2c1CCN(C[C@@H](O)CNC(=O)c1ccnc(NC3CCC3)c1)C2 [Compound 341]
*A* 0.5 to 5 µM

*Q* Fill in the blank: the reported IC50 of O=C(NC[C@H](O)CN1CCc2c(Cl)c(OCc3cnco3)cc(F)c2C1)c1ccnc(NC2CCC2)c1 [Compound 279] is ____.
*A* ≥ 5 µM

*Q* Sample O=C1N[C@H]2[C@H](CS[C@H]2CCCCC(=O)N2CCC(Nc3cc(C(=O)NC[C@H](O)CN4CCc5cc(OCc6cnco6)ccc5C4)ncn3)CC2)N1 [Compound 265] — what was its IC50?
*A* 0.5 to 5 µM

*Q* GET /values?readout=IC50&item= Cc1ncoc1COc1ccc2c(c1Br)CCN(C[C@@H](O)CNC(=O)c1ccnc(NC3CCCCC3)c1)C2 [Compound 346]
*A* ≥ 5 µM

*Q* Name the reported IC50 value associated with the compound Cc1ncoc1COc1ccc2c(c1)CCN(C[C@@H](O)CNC(=O)c1ccnc(NC3CCN(C(=O)C(C)(C)C)CC3)c1)C2 [Compound 640]
*A* 0.5 to 5 µM

*Q* Any idea what IC50 was measured for Cc1ncoc1COc1ccc2c(c1)CCN(C[C@@H](O)CNC(=O)c1cc(NC3COC3)nc(N3CCCCC3)n1)C2 [Compound 405] ?
*A* 0.5 to 5 µM

*Q* Requested field: IC50. Item: CCN1CCN(c2cc(C(=O)NC[C@H](O)CN3CCc4c(ccc(OCc5ocnc5C)c4C)C3)cc(NC3CCC3)n2)CC1 [Compound 394]
*A* 0.5 to 5 µM

*Q* Value lookup for IC50; key = CC(C)(C)N1CCN(c2cc(C(=O)NC[C@H](O)CN3CCc4c(ccc(OCc5cnco5)c4Cl)C3)cc(NC3CCC3)n2)CC1 [Compound 319]
*A* 0.5 to 5 µM

*Q* Find the recorded IC50 belonging to Cc1c(OCc2cnn[nH]2)ccc2c1CCN(C[C@@H](O)CNC(=O)c1ccnc(NC3CCC3)c1)C2 [Compound 273] and report it.
*A* ≥ 5 µM

*Q* So what does the record say about IC50 for CC(C)Cc1cc(C(=O)NC[C@H](O)CN2CCc3c(ccc(OCc4cnco4)c3Cl)C2)cc(NC2CCC2)n1 [Compound 287] ?
*A* ≥ 5 µM

*Q* Given the entry CCC(=O)N1CCN(c2cc(C(=O)NC[C@H](O)CN3CCc4cc(OCc5ocnc5C)ccc4C3)cc(NC3CCC3)n2)CC1 [Compound 389] , report its measured IC50.
*A* 0.5 to 5 µM

*Q* Recorded IC50 for CCC(=O)N1CCN(c2nc(NC3COC3)cc(C(=O)NC[C@H](O)CN3CCc4cc(OCc5ocnc5C)ccc4C3)n2)CC1 [Compound 409] , please?
*A* 0.5 to 5 µM

*Q* Can you share its IC50? I mean this compound: Cc1ncoc1COc1ccc2c(c1)CCN(C[C@@H](O)CNC(=O)c1cncc(NC3CCC3)c1)C2 [Compound 271]
*A* 0.5 to 5 µM

*Q* Tell me the measured IC50 of CCN1CCN(c2nc(NC3COC3)cc(C(=O)NC[C@H](O)CN3CCc4cc(OCc5cnco5)ccc4C3)n2)CC1 [Compound 353] , please.
*A* 0.5 to 5 µM

*Q* Which IC50 is reported for this compound? Cc1c(OCc2cnco2)ccc2c1CCN(C[C@@H](O)CNC(=O)c1cccc(NC3CCC3)c1)C2 [Compound 351]
*A* ≥ 5 µM

*Q* Name the reported IC50 value associated with the compound CC(=O)N1CCC(Nc2cc(C(=O)NC[C@@H](O)CN3CCc4c(C)c(OCc5ocnc5C)cc(F)c4C3)cc(N3CCCCC3)n2)CC1 [Compound 652]
*A* 0.5 to 5 µM

*Q* So what does the record say about IC50 for Cc1ncoc1COc1ccc2c(c1)CCN(C[C@@H](O)CNC(=O)c1cc(NC3CCC3)nc(N3CCCCC3)n1)C2 [Compound 639] ?
*A* 0.5 to 5 µM

*Q* Could you share which IC50 value was measured for CC(=O)N1CCC(Nc2cc(C(=O)NC[C@H](O)CN3CCc4c(C)c(OCc5ocnc5C)cc(F)c4C3)cc(N3CCCCC3)n2)CC1 [Compound 653] ?
*A* ≥ 5 µM

*Q* Entry Cc1ncoc1COc1ccc2c(c1C)CCN(C[C@@H](O)CNC(=O)c1cc(NC3CCCC3)ncn1)C2 [Compound 367] has what IC50?
*A* ≥ 5 µM

*Q* Need IC50 of COCCN(C)c1cc(C(=O)NC[C@H](O)CN2CCc3c(ccc(OCc4cnco4)c3Cl)C2)cc(NC2CCC2)n1 [Compound 345] , thanks.
*A* ≥ 5 µM

*Q* Recorded IC50 for Cc1ncoc1COc1ccc2c(c1C)CCN(C[C@@H](O)CNC(=O)c1cc(NC3COC3)nc(N3CCN(C(=O)C(C)C)CC3)n1)C2 [Compound 421] , please?
*A* ≥ 5 µM

*Q* Please report the recorded IC50 for CC(=O)N1CCC(Nc2cc(C(=O)NC[C@H](O)CN3CCc4cc(OCc5cnco5)ccc4C3)ncn2)CC1 [Compound 135] .
*A* ≥ 5 µM

*Q* Name the recorded IC50 for Cc1ncoc1COc1ccc2c(c1)CCN(C[C@@H](O)CNC(=O)c1ccnc(NC3CCN(C)C(=O)C3)c1)C2 (stereo partly drawn) [Compound 627] .
*A* ≥ 5 µM

*Q* Please look up its IC50: Cc1ncoc1COc1ccc2c(c1C)CCN(C[C@@H](O)CNC(=O)c1cc(NC3CCCCC3)ncn1)C2 [Compound 368]
*A* ≥ 5 µM

*Q* Record request: IC50 value, item Cc1ncoc1COc1ccc2c(c1C)CCN(C[C@@H](O)CNC(=O)c1cc(NC3COC3)nc(N3CCOCC3)n1)C2 [Compound 423]
*A* ≥ 5 µM

*Q* Requested field: IC50. Item: Cc1ncoc1COc1ccc2c(c1C)CCN(C[C@@H](O)CNC(=O)c1cccc(NC3COC3)c1)C2 [Compound 375]
*A* ≥ 5 µM

* * *

Can you tell me pIC50 for the items I'm about to list?
target or system: PRMT5 (Homo sapiens)
Construct: purchased Viva (custom protein)
measurement notes: PRMT5 IC50 assay in the presence of MTA as cofactor
Assay type: biochemical
assay setup: PRMT5, MTA as cofactor
pIC50: −log10 of the molar value.

*Q* // lookup pIC50 for CC(=O)N1CCC(Nc2cc(C(=O)NC[C@H](O)CN3CCc4c(ccc(OCc5ocnc5C)c4C)C3)ncn2)CC1 [Compound 274]
*A* 6.30 to 7.30

*Q* Find the recorded pIC50 belonging to Cc1ncoc1COc1ccc2c(c1)CCN(C[C@@H](O)CNC(=O)c1cc(NC3CCC3)nc(N3CCN(C(=O)C4CC4)CC3)c1)C2 [Compound 455] and report it.
*A* 6.30 to 7.30

*Q* # pIC50 lookup, item Cc1c(OCc2cnco2)ccc2c1CCN(C[C@@H](O)CNC(=O)c1ccnc(N[C@H]3C[C@H](CO)C3)c1)C2 [Compound 537]
*A* 6.30 to 7.30

*Q* Requested field: pIC50. Item: Cc1c(OCc2cnco2)ccc2c1CCN(C[C@@H](O)CNC(=O)c1cc(NC3CCOCC3)ccn1)C2 [Compound 573]
*A* 5.30 to 6.30

* * *

Can you tell me IC50 for the items I'm about to list?
target or system: PRMT5 (Homo sapiens)
Construct: purchased Viva (custom protein)
measurement notes: PRMT5 IC50 assay with no cofactor
Format: biochemical

*Q* Which IC50 value is on record for Cc1ncoc1COc1ccc2c(c1)CCN(C[C@@H](O)CNC(=O)c1cc(CC(C)C)nc(NC3CCC3)c1)C2 ?
*A* ≥ 5 µM

*Q* Query: IC50; subject: Cc1ncoc1COc1ccc2c(c1)CCN(C[C@@H](O)CNC(=O)c1ccnc(Nc3cccnc3)c1)C2
*A* ≥ 5 µM

*Q* Quick one: IC50 of Cc1ncoc1COc1ccc2c(c1)CCN(C[C@@H](O)CNC(=O)c1ccnc(NC3CC4(CCC4)C3)c1)C2 ?
*A* 0.5 to 5 µM

*Q* If you can, please state the reported IC50 value of O=C(NC[C@H](O)CN1CCc2c(ccc(OCc3cnco3)c2Cl)C1)c1cc(NC2CCC2)nc(N2CCN(C(=O)C3CC3)CC2)c1 .
*A* 0.5 to 5 µM

*Q* Find the recorded IC50 belonging to Cc1c(OCc2cnco2)ccc2c1CCN(C[C@@H](O)CNC(=O)c1ccnc(N[C@H]3C[C@H](CO)C3)c1)C2 and report it.
*A* ≥ 5 µM

*Q* Would you kindly share the measured IC50 for Cc1ncoc1COc1ccc2c(c1)CCN(C[C@@H](O)CNC(=O)c1ccnc(NC3CC4(CC4)C3)c1)C2 ?
*A* 0.5 to 5 µM

*Q* Quick one: IC50 for Cc1c(OCc2cnco2)ccc2c1CCN(C[C@@H](O)CNC(=O)c1cccc(NC3CCOCC3)c1)C2 ?
*A* ≥ 5 µM

src = patent US11986471B2
